Reference for the values: PubChem BioAssay (NCI)

Answer each item with its documented TGI.
Tested on: IGROV1 ovarian
experiment_description: NCI tumour cell line growth inhibition, 48 h

q: Give reported TGI value for N#CC1(C#N)C2CCCCC23OC(=N)C1(C#N)C(c1ccccc1)O3 (configuration not stated)
a: 37.2 µM

q: Give reported TGI value for COC(=O)CN(C)P(=O)(N1CC1)N1CC1
a: > 100 µM

q: Give reported TGI value for CC(C)(C)C(=O)OC(N)/C=C/c1ccccc1 (configuration not stated)
a: > 100 µM

q: Give reported TGI value for CCOC(=O)c1ccc(C(=O)/C(C#N)=C2\CCCN2C)[nH]1
a: > 100 µM

q: Give reported TGI value for O=[N+]([O-])c1ccc(S(=O)(=O)N=Ic2ccccc2)cc1
a: > 100 µM

q: Give reported TGI value for Oc1cc(O)c2c(c1)OC(c1ccc(O)c(O)c1)C(OC1(c3cc(O)c(O)c(O)c3)Oc3cc(O)cc(O)c3C(O)C1O)C2 (configuration not stated)
a: > 86.2 µM

q: Give reported TGI value for O=C1C[C@H]2[C@@H](O1)[C@@H](O)CN1C(=O)c3ccccc3[C@H]21
a: > 100 µM

q: Give reported TGI value for CCOC(=O)NC(=O)c1cn(CCOC(=O)NCCCCCCNC(=O)OCCn2cc(C(=O)NC(=O)OCC)c(=O)[nH]c2=O)c(=O)[nH]c1=O
a: > 100 µM

q: Give reported TGI value for COc1c(OC)c(OC)c(C(=O)/C=C/c2ccccc2)c(OC)c1OC
a: 27.9 µM

q: Give reported TGI value for CC1C[C@]2(C)C(=O)Nc3ccccc3[C@@H]2Nc2ccccc21 (some centres not stated)
a: 78.2 µM

q: Give reported TGI value for CCCCCC(/C=C/C1CCC(=O)C1CC#C[Si](C)(C)C)OCc1ccccc1 (configuration not stated)
a: 28.7 µM

q: Give reported TGI value for CCN(CC)CCOc1ccc(/C=C2\CC3C4CC=C5C[C@@H](O)CC[C@]5(C)C4CC[C@]3(C)C2=O)cc1OC (some centres not stated)
a: 7.72 µM

q: Give reported TGI value for CCOc1ccc2c(c1)[n+]([O-])c(-c1ccccc1Cl)c(N)[n+]2[O-]
a: > 100 µM

q: Give reported TGI value for NC12Oc3cc(O)cc(O)c3C1(c1ccc(Cl)cc1)c1c(O)cc(O)cc1O2 (configuration not stated)
a: > 100 µM

q: Give reported TGI value for COC(=O)c1c(O)ccc2c1c1c(n2Cc2ccc(Cl)cc2Cl)C(=O)c2ccccc2C1
a: > 100 µM

q: Give reported TGI value for O=c1c2ccccc2sc2cccc(NCCCN3CCN(CCCNc4cccc5sc6ccccc6c(=O)c45)CC3)c12
a: > 100 µM

q: Give reported TGI value for COc1cc(C2c3cc4c(cc3C(O)C(CO)C2CO)OCO4)cc(OC)c1OC (configuration not stated)
a: > 25.9 µM

q: Give reported TGI value for Cc1ccc(Cl)cc1Nc1nc(C(F)(F)F)ccc1C(=O)N1CCN(c2cccc(Cl)c2)CC1
a: > 100 µM

q: Give reported TGI value for O=C(CCc1cc(O)cc(O)c1)NCCc1cc(O)cc(O)c1
a: > 100 µM

q: Give reported TGI value for Nc1nc2c(ncn2Cc2ccc(CO)cc2)c(=O)[nH]1
a: > 100 µM

q: Give reported TGI value for CN(C)/C=N/n1c2ccccc2c2ccccc21
a: > 100 µM

q: Give reported TGI value for Cc1cn2c(/C=C3\C(=O)Nc4ccc(O)cc43)c(-c3ccc(Cl)cc3)nc2s1
a: 23.9 µM

q: Give reported TGI value for O=C(O)CCN(CCC(=O)O)c1ccc(/C=C2\SC(=S)NC2=O)cc1
a: > 100 µM

q: Give reported TGI value for Oc1ccc(-c2nc(-c3ccc(F)cc3)c(-c3ccc4ccccc4n3)[nH]2)cc1
a: 26.5 µM

q: Give reported TGI value for COC(=O)C1C=CN(N(C)C)C2=C1C(=O)c1c(O)cccc1C2=O (configuration not stated)
a: 5.63 µM

q: Give reported TGI value for O=C(O)CSc1n[nH]c(-c2ccccc2)n1
a: > 100 µM

q: Give reported TGI value for Cc1c(CNc2ccc(C(=O)NC(CC(=O)O)C(=O)O)cc2)ccc2nc(N)nc(N)c12 (configuration not stated)
a: > 1000 µM

q: Give reported TGI value for S=c1[nH]n2c(COc3cccc(OCc4nnc5sc(=S)[nH]n45)c3)nnc2s1
a: > 100 µM

q: Give reported TGI value for COc1cc2c3c(c4cc(OC)c(OC)cc4c2cc1OC)C(=O)C1CCC(=O)N1C3 (configuration not stated)
a: 88.5 µM

q: Give reported TGI value for O=C1CC(C[C@H](O)C2CCCCC2O)CC(=O)N1Cc1ccccc1 (some centres not stated)
a: > 100 µM

q: Give reported TGI value for COC(=O)C1(OC(=O)Sc2ccccc2)CCN(C)CC1
a: 18.7 µM

q: Give reported TGI value for Cc1[nH]c2ccccc2c1-c1cc(-c2cc(-c3c(C)[nH]c4ccccc34)on2)no1
a: > 100 µM

q: Give reported TGI value for Cn1c(=O)c2c(no[n+]2[O-])c2ccccc21
a: 31.4 µM

q: Give reported TGI value for O=c1[nH]c(=O)n(C2CC(O)C(CO)O2)cc1CO (configuration not stated)
a: > 100 µM

q: Give reported TGI value for O=C1NN=C2C=C(c3ccc(Cl)cc3)CC(c3cccc(Cl)c3)C12 (configuration not stated)
a: 59.1 µM

q: Give reported TGI value for O=C(NC(=O)c1cn(CCNCCO)c(=O)[nH]c1=O)OCc1ccccc1
a: > 100 µM

q: Give reported TGI value for CCN1CCN=c2c3cc(OC)ccc3n3cnc4ccc1c2c43
a: 7.62 µM

q: Give reported TGI value for Cc1ccc(S(=O)(=O)N/N=C/c2oc(-c3ccncc3)c(-c3ccncc3)c2[N+](=O)[O-])cc1
a: > 100 µM

q: Give reported TGI value for CC1=C2CCCC2=C/C(=N/Nc2ccc([N+](=O)[O-])cc2[N+](=O)[O-])CC1
a: > 100 µM

q: Give reported TGI value for O=c1[nH]cc(COCCO)c(=O)[nH]1
a: > 100 µM

q: Give reported TGI value for CC(/C=N\NC(=S)N1CCCCC1)=N/NC(=S)N1CCCCC1
a: 8.3 µM

q: Give reported TGI value for Cc1c(Cl)cccc1N1C(=O)C(Cl)=C(Cl)C1=O
a: > 100 µM
